Reported values of IC50 for individual entries
System: HT 29 (Colon adenocarcinoma)
Assay: In vitro cytotoxicity, microculture tetrazolium (MTT) assay, HT29
Format: cell-based, Human
Settings: Homo sapiens, HT-29, 48 h with compound, further 48 h, Table 1
Structures can show the parent of a compound that is named as a salt.

CC(C)OC(=O)[C@@H]1CC2=C(C(=O)c3ccccc3C2=O)[C@@H](O[C@H]2C[C@H](NC(=O)C(F)(F)F)[C@H](O)[C@H](C)O2)O1 [BCH2122] : 0.64 µM
CC(=O)C1CC2=C(C(=O)c3ccccc3C2=O)C(OCC2CCCCN2)O1 (racemic) [BCH2069, hydrochloride] : 0.35 µM
CC(=O)[C@@H]1CC2=C(C(=O)c3ccccc3C2=O)[C@@H](O[C@H]2C[C@H](NC(=O)C(F)(F)F)[C@H](O)[C@H](C)O2)S1 [BCH2037] : 1.1 to 4.25 µM
CC(=O)[C@H]1CC2=C(C(=O)c3ccc(O)cc3C2=O)[C@H](O[C@H]2C[C@H](NC(=O)C(F)(F)F)[C@H](O)[C@H](C)O2)O1 [BCH1180] : 0.468 µM
COC(=O)[C@H](CC(C)C)NC(=O)[C@@H](N)CO[C@H]1O[C@H](C(C)=O)CC2=C1C(=O)c1ccccc1C2=O [BCH2000, hydrochloride] : 0.0378 µM

# compound CC(=O)C1CC2=C(C(=O)c3ccccc3C2=O)C(O)O1 (centres unmarked) [BCH1148] ; its IC50 = > 100 µM

# compound CC(=O)C1CC2=C(C(=O)c3ccccc3C2=O)C(O[C@H]2C[C@H](O)[C@H](O)[C@H](C)O2)O1 (mixture of isomers) [BCH2117] ; its IC50 = 0.03 µM

# compound COC(=O)C1(C(=O)OC)CC2=C(CO1)C(=O)c1ccccc1C2=O [BCH1665] ; its IC50 = 60.4 µM

# compound COC1OC(C(=O)NCCN2CCOCC2)=CC2=C1C(=O)c1ccccc1C2=O (centres unmarked) [BCH2170] ; its IC50 = 0.244 µM

# compound CO[C@H]1C[C@H](O[C@H]2O[C@H](C(C)=O)C[C@]34O[C@]23C(=O)c2ccccc2C4=O)O[C@@H](C)[C@H]1OS(C)(=O)=O [BCH2141] ; its IC50 = 6.44 µM

# compound CC(=O)CC1CC2=C(C(=O)c3cccc(O)c3C2=O)C(O[C@H]2C[C@H](NC(=O)C(F)(F)F)[C@H](O)[C@H](C)O2)O1 (mixture of isomers) [BCH2098] ; its IC50 = 17 µM

# compound C=C(C)[C@H]1CC2=C(C(=O)c3ccccc3C2=O)[C@H](OC)O1 (relative stereo) [BCH2148] ; its IC50 = 7.5 µM

# compound C[C@@H]1O[C@@H](O[C@H]2O[C@H](COc3ccccc3)CC3=C2C(=O)c2ccccc2C3=O)C[C@H](NC(=O)C(F)(F)F)[C@@H]1O [BCH2032] ; its IC50 = 8.49 to 9.3 µM

# compound CC[C@H]1CC2=C(C(=O)c3ccccc3C2=O)[C@H](O[C@H]2C[C@H](N)[C@H](O)[C@H](C)O2)O1 [BCH2021, hydrochloride] ; its IC50 = 37.8 µM
